# assayNotes: Pharmacokinetic experiment of the compounds in mice
# Type: in vivo
# protocolConditions: mouse, plasma, 2 mg/kg; Male CD-1 mice, fasting, intravenous injection, 2 mpk; read-out: Apparent distribution volume Vdss
outcomeMeasure: Vd (L/kg)

These solved cases illustrate the format of a correct answer.
CC1(C)[C@H](NC(=O)/C(=N\OCCOc2ccc3c(c2)CN(C(=N)NCCCN)C3)c2csc(N)n2)C(=O)N1OS(=O)(=O)O :: 0.281
CC1(C)[C@H](NC(=O)/C(=N\OCCOc2ccc3c(c2)CN(C(=N)N(CCCN)CCCN)C3)c2csc(N)n2)C(=O)N1OS(=O)(=O)O :: 0.237

1 = CC1(C)[C@H](NC(=O)/C(=N\O[C@@H](COc2ccc3c(c2)CN(C(=N)N(CCCN)CCCN)C3)C(=O)O)c2csc(N)n2)C(=O)N1OS(=O)(=O)O
2 = CC1(C)[C@H](NC(=O)/C(=N\O[C@@H](COc2ccc3c(c2)CN(C(=N)NCCCN)C3)C(=O)O)c2csc(N)n2)C(=O)N1OS(=O)(=O)O
Which of these two has the smaller recorded Vd: 1 or 2 ? Return value: the label identifying the chosen record. 1
(1: 0.0636 L/kg, 2: 0.274 L/kg)
